B1: ISL2 (parent)
chain: HYPFLGAMGDHSKKKPGTAMCVGC

# Variants of: B1
# experiment: protein stability index of a GFP-peptide fusion (GPS, HEK-293T) (PSI 1-6); higher = more stable;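 note: lentivirally expressed fusions sorted by FACS into six bins by GFP to DsRed ratio, PSI derived from sequencing read proportions per bin multiplied by bin number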
# experimental.setup: c terminus: a fixed tail appended
The threshold is inclusive: protein stability index of exactly 3 counts as condition met; values below receive condition not met.

{"mutation.string": "V22C", "category.label": "condition met"}
{"mutation.string": "K15V", "category.label": "condition not met"}
{"mutation.string": "A19M", "category.label": "condition not met"}
{"mutation.string": "G17F", "category.label": "condition not met"}
{"mutation.string": "T18I", "category.label": "condition not met"}
{"mutation.string": "G17H", "category.label": "condition met"}
{"mutation.string": "S12H", "category.label": "condition not met"}
{"mutation.string": "S12F", "category.label": "condition not met"}
{"mutation.string": "G17V", "category.label": "condition not met"}
{"mutation.string": "C24W", "category.label": "condition not met"}
{"mutation.string": "C21S", "category.label": "condition met"}
{"mutation.string": "D10N", "category.label": "condition not met"}
{"mutation.string": "C24T", "category.label": "condition not met"}
{"mutation.string": "P16W", "category.label": "condition not met"}
{"mutation.string": "D10V", "category.label": "condition not met"}
{"mutation.string": "H11A", "category.label": "condition not met"}
{"mutation.string": "K14S", "category.label": "condition not met"}
{"mutation.string": "C24H", "category.label": "condition met"}
